Parameter: IC50. Scope: all listed entries.
# TARGET_OF_ASSAY: Opioid receptors; mu/kappa/delta (Homo sapiens, UniProt P41145+P41143+P35372)
# EXPERIMENT_DESCRIPTION: In vitro binding affinity against Opioid receptors from bovine caudate nucleus determined in presence of [3H]- bremazocine (0.5 nM)
# Format: protein assay, Bos taurus
# EXPERIMENTAL_PARAMETERS: target entry is the homologue from another species

COMPOUND	IC50 [nM]
C=C(CO[C@@H]1CC[C@@]2(O)[C@H]3Cc4ccc(O)c5c4[C@@]2(CCN3CC2CC2)[C@H]1O5)C(=O)OC	12
C=C(C)C(=O)OC1CCC2(O)C3Cc4ccc(O)c5c4[C@@]2(CCN3CC2CC2)C1O5 (stereo not given in full)	5
C=C(C)C(=O)O[C@H]1CC[C@@]2(O)[C@H]3Cc4ccc(O)c5c4[C@@]2(CCN3CC2CC2)[C@H]1O5	20
C=C1CC2(CCC3(O)[C@H]4Cc5ccc(O)c6c5[C@@]3(CCN4CC3CC3)C2O6)OC1=O (stereo not given in full)	6
C=C(COC1CCC2(O)C3Cc4ccc(O)c5c4[C@@]2(CCN3CC2CC2)C1O5)C(=O)OC (stereo not given in full)	2.4
